Listed here: items and their measured soluble fraction (log2).
assay: soluble fraction after stress (log2 fold change); higher = more stays soluble; pooled small domains, quantitative proteomics; details: stress: 75 degC;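 note: 20 min heating vs room temperature control held 20 min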
reported metric: soluble fraction (log2)

HMSPRAIYVTTSDLNMRMQPSPNAYKRGVAPRGTELLVVEWGDDWSKVIFEGDTAYAASRYLSYVKDEP = -1.74
HMNKPKIIINSVDDSVFSDYVKDSLSIAEVARSIGIDNNKINTSVYREIHKRIDSLKLDTSHFTGGAWN = -0.235
HMLMYAQDEKEEASNNIPYRLLHMSFTKEQKAELQRAMDVRVPKDIILSYFYPDTPVARMMEIRRQYESA = -0.814
HMRVDLVQRLARHGLSPRQSAVAGGVLRGLDNGEISRQLYIAEQTVKDHLHEIYHRLGVHTRTELLIKVLG = -2.22
HMLQQKESAALGERLLNQALATLKVEPDAISWDRWEALAKEYGAKSQLDILADIGLGKRLSFVVAQALTKV = -1.25
HMPPDVIENIFKNDANKIIDLYNMAPRGQKETIVEMIKNKRLQGINVDANVLVKLGELTGIDFVN = -0.087
HMQQELDAFKLLITVSGVGPKAAMAVLSVLPPDRLSIAVSSGDVKSIQSAQGVGKKTAERIVLELKDKM = -0.906
HMGNEMQVPNVAGKTVDEAIEIFNNMGLKVAAENKYAQSDDVKEGDVVKTDPSSGRNVKKGSEITLYISQG = 0.375
HMSEMDNMEWVREQYFQNMIYEIGEWVRDKKTGIVGEVVKRGTNYVTVVQEDFSLHKIWLEDLETTEK = -0.841
HMLDPKVFVGKAGINEGIAKLLLQAFDKADLVKVRFTAERDVMETQMQELARLTGSEVIGNVGRTATF = -0.0412
HMQVFDSNEIDEVVKKVIENNPQAVADFKKGKSNALQFLAGQVMRETKGRFNPNVVQERIRLLLT = 0.671
HMRLTTTPKTARGLTTMNRIIRAAEVEFGRKGYHYTGITDIAQRAKVASGTIYLYFTDKYSLYVHLLT = 0.159
HMVSKEELANSIYENKTADELGNIVLRKGKYSGEMLRTIYVKDIGYLEWHSKQSYEYSNAVKWYLKKLE = -1.37
HMGVMNEYEELRDRYLTGQIWKIGDLVEAKGIEGKIIQRGTNYITFNDSQGKVHKAWLHEIKV = -0.00315

---

Entries annotated with measured soluble fraction (log2)
assay: soluble fraction after stress (log2 fold change); higher = more stays soluble; pooled small domains, quantitative proteomics; conditions: stress: 75 degC
reported metric: soluble fraction (log2)

HMGSDLVAWAQTRIGRHPEEAADVIAALIDRHGEARVRAASRSLLARKFAHASDLRTAIDAAIG = -0.365
HMKKGRIGSIIQYVREHPGVSSSEIITGLGLDISPATIRRDLTLLVAENKLSVEGQNKGTKYFVSPTYDMF = -1.22
HMGSEYPSNPLASRWAKGVRLYHDEWGYGVIQAARGSEPDDYVITVRFESGAEKSFLPKFQAHSLMIVKD = -1.21
HMDPEARRRAILNAAIDVIVEKGAAALTHRAVAARAGVSLGSTTKYFSSIEDLRENAMDALVREMD = -0.496
HMITANNYFNEVERIGVETLPETLRKGHDLVVRSTNSGTNWSNYQNNESIRKVIDLYLQKLNEYVSTST = 0.294
HMREGIQLGDPVRVIRDPLFGKIGAVSGLPSELRAIPTESEVRVLEVRFPDGTTTVVPRANIEVIEG = 0.487
HMNSKIIVESIIKSKNGIAKVADLVEGGVSRQSIKKMYADGYIKRISRGYYTLTSEPVSSDEQVISS = -0.645
HMSMTLSVLDDVRGLSESRRKQLFHSFGSIKKLREQSKETLMSIPYLPEKVALELYDKLHEE = -0.243
HMDIANEQEQIFITAMRNDDFNPILELKMKGYQPSKNVLKSLQPDVSSTTFIAAAKIFQMEGVL = -1
HMNEFNEVVPDSLEGERLDRLLAFIGNISRSEASNIIKGGEVLINGKVVTRPSFKVTLGNRVEFSIRD = -0.531
HMKTKILAPIPGSIMVVDVKVGDTVKVGDRLVQLEAMKMENNITSEKAGKITAVLVTAGQKVLQNEVMIEL = -1.01
HMIMMTLGEKIRSIRKAKGMTQQELAEKLNTTKQTIGKYEKGIVTNLPLFRINELARALSTTPAYLTGW = -1.46
HMNTPTLLLYGGKDHSVPEAGIRHLRAHLSANDRGEYRFYPNAPHLLLQSRQWQQVSQDISQWLAMT = 0.037
HMPDTETLTPRQRQILDLVQELGFTTIETLAERFGVSAQTVRREIIRLQAGNFLQRFHGGAGLASGGIRSA = -1.24
HMRESDQSTVELSLERTIQEALMVNPRTSSVEEFSFEWGTGRVKVSFIVYSVDGEPFTVDSIIE = -2.45
HMKSNNPLDHVRVKQRGASWAYYFEKAKVDGKRRRGEGGGYATEQDARMAGVEAYNAYIGGGAK = -0.172
HMALPEHIEPFLRGLGQALAEGDSYEDVQERLLRAYPYLDSTEFQTALARVIFISDLWGRLN = -1.85
HMDGQPQLLIKNGQLLVSTALKNGMSANDLMFRLRTEGITDIRYVKRAVLEQNGQLTITQVGDD = -0.622
HMLPDLLNGRVIPSPEKVIRARLNRGVWELLVQWVGRAPSDATWENLLEFKSAYPSVQLEDALF = -1.97
HMNIDGLIGKKALVTADIDNVNSKGQIKINGLEWTARSVDDEPIPMGTEVEITAISGVKAIVRKG = 0.139
HMNNLLEDIKARLMAQAEAGGHIDTETELAEHFGVTRYRIRKELDLLSQMGLLRRQPKNGIEVLTV = -0.171
HMPLSDAEKAAAIATQAKERALKLSPEMISYLLRHASRDMRTLSMLVVALDQYTLEQKRPVTLPLLRELLS = -0.0668
HMPKRSKDEAELEFLEMLRDNQVDSTWSFGKIISQLGSTDPRYWMVDDDPLWKRQIFEKYLSNR = -0.228
HMGAGFREAIPPALDGERIDRVVSLLAYVSRNRAAGALAAGSVSVDGEVVFQRSRRVREGEELVVTGFERE = -1.01
HMNKMHKLPSVSEILNKVRLQKIHNESFIKFKIKEEIDRYRKLAKKDQLFLSRDEITYEIIEKLLNFSMPS = -3.97
